target: AgSla1-D1-D2; experiment: SPOT peptide array binding signal intensity (averaged, normalized) (arbitrary units (background-subtracted, floor 0; scale differs between SH3 domains)); higher = stronger binding of the SH3 domain to the peptide
readout.kind: SPOT peptide array binding signal intensity
Simply state the number, no unit and no words.

Worked set:
[
  {
    "binder": "FYNRTAFQLPGDARV",
    "experimental.result": 1
  },
  {
    "binder": "GKFIPSRPAPKPPSS",
    "experimental.result": 35
  }
]

Query: Write down SPOT peptide array binding signal intensity measured for item QNTPPLPPKPKSPHL
Reply: 2

Query: Write down SPOT peptide array binding signal intensity measured for item VAPPPLPNRQLPNLD
Reply: 1.5
